- TEST TARGET: human FAAH (Fatty Acid Amide Hydrolase) (Homo sapiens, UniProt O00519)
- Construct: The full length FAAH was subcloned into the mammalian expression vector, pcDEF.neo, using XbaI and EcoRI restriction sites; expressed in transfected cells
- Sequence (O00519 1-579): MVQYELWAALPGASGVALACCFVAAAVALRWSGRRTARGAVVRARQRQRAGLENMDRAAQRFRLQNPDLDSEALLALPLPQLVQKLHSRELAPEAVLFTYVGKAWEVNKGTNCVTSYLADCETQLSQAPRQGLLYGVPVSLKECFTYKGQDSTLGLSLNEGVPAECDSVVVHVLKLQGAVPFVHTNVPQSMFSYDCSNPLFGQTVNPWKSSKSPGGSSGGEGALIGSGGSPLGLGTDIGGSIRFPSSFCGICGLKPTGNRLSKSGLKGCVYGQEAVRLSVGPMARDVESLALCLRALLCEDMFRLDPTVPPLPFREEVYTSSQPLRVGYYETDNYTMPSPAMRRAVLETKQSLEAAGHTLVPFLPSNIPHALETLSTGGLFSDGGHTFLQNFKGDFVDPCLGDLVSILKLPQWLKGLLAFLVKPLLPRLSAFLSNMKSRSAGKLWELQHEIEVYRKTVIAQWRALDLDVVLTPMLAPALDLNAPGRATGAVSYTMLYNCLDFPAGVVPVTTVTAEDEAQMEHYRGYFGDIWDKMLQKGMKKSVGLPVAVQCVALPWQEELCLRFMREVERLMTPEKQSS
- ASSAY METHOD TEXT: FAAH whole cell assay on CHO cells expressing human FAAH (human WC), AAMCA fluorescent substrate
- Type: cell-based
- CONDITION CONTEXT: human FAAH_CHO whole cell
- Description: To assist in assay development stable cell lines for human, murine and rat full length FAAH were developed. Human FAAH cDNA (Accession No: NM_001441.1) was purchased from Origene (Rockville, Md.). The full length FAAH was subcloned into the mammalian expression vector, pcDEF.neo, using XbaI and EcoRI restriction sites and used for stable cell line generation. […]
PROPERTY NAME: IC50 (nM)

Below, each entry is followed by its recorded IC50 result.
[[record]]
smiles_input = "CC(C)(O)CCc1[nH]c2ncccc2c1Sc1ccc(Cl)cc1"
assay_result = 152

[[record]]
smiles_input = "COC(=O)N1CCC(c2[nH]c3ncccc3c2Sc2ccc(Cl)cc2)CC1"
assay_result = 11.1


(P) COC(=O)N1CCC(c2nc3n(C)cccc-3c2Sc2ccc(Cl)cc2)CC1
(Q) Clc1ccc(Sc2c(C3=CCCC3)[nH]c3ncccc23)cc1
(R) O=C(NCCCO)c1[nH]c2ncccc2c1Sc1ccc(Cl)cc1
Sort the 3 compounds by IC50; largest first, smallest last. Could you list the labels in the order requested?
Q, R, P
(Q: 1110 nM, R: 607 nM, P: 9.35 nM)

* * *

- TEST TARGET: human FAAH (Fatty Acid Amide Hydrolase) (Homo sapiens)
- Construct: The full length FAAH was subcloned into the mammalian expression vector, pcDEF.neo, using XbaI and EcoRI restriction sites; expressed in transfected cells
- ASSAY METHOD TEXT: FAAH whole cell assay on CHO cells expressing human FAAH (human WC), AAMCA fluorescent substrate
- Format: cell-based
- CONDITION CONTEXT: human FAAH_CHO whole cell
pIC50: −log10 of the molar value.
PROPERTY NAME: pIC50

Solved entries (count: 5):
[[record]]
compound = "Clc1ccc(Sc2c(-c3ccc4c(c3)OCO4)[nH]c3ncccc23)cc1"
assay_result = 8.34

[[record]]
compound = "Clc1ccc(Sc2c(-c3cnn4c3CCCC4)[nH]c3ncccc23)cc1"
assay_result = 6.46

[[record]]
compound = "COc1ccc(-c2[nH]c3ncccc3c2Sc2ccc(Cl)cn2)cn1"
assay_result = 6.89

[[record]]
compound = "OC[C@H]1CC[C@@H](c2[nH]c3ncccc3c2Sc2ccc(Cl)cc2)CC1"
assay_result = 7.13

[[record]]
compound = "Cn1cccc2c(Sc3ccc(Cl)cc3)c(-c3ccc4[nH]ncc4c3)nc1-2"
assay_result = 7.91


(I) CC(C)C(O)c1[nH]c2ncccc2c1Sc1ccc(Cl)cc1 (stereo not drawn)
(II) Cn1cccc2c(Sc3ccc(Cl)cc3)c(-c3ccc(C(O)C(F)(F)F)cc3)nc1-2 (stereo not drawn)
Hi there! Just curious which has the higher pIC50 between I and II . Lab note: record the label of whichever item you select.
II

(a) Clc1ccc(Sc2c(C3=CCCCC3)[nH]c3ncccc23)cc1
(b) O=C(Nc1ccc2c(c1)OCO2)c1[nH]c2ncccc2c1Sc1ccc(Cl)cc1
Lower pIC50: a or b ? Response format: the label of the selected entry.
a
(a: 7.16, b: 8.00)
